# TARGET_SYSTEM: human Claudin-6 (CLDN6) (human) (UniProt P56747)
# ASSAY_SUMMARY: FACS, limiting dilution, UMUC4 cells

BINDER	FACS signal at 8 nM
AB3-7 (antibody, V domains shown, humanized; also called AB23; humanized AB3-7) VH: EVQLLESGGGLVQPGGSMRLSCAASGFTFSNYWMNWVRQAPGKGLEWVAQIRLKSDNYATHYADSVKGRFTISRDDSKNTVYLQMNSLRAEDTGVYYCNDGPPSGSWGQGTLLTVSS VL: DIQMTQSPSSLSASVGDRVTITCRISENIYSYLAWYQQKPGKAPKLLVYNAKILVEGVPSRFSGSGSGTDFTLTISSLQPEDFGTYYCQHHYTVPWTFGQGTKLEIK	724
AB S10 (antibody, V domains shown) VH: QVQLVQSGAEVKKPGASVKMSCKASGYTFTTYTMHWVRQAPGQGLEWIGFINPSSGYTEYAQKFQGRVTLTADKSTSTVYMELSSLRSEDTAVYYCANGDYYVGYWGQGTLVTVSS VL: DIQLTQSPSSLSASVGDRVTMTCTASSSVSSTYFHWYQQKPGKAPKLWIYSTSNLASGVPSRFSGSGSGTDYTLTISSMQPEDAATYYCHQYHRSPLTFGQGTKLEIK	6850
